protocol: Solubility estimation in solvents at RT
Type: physicochemical
experimental-setup: IPAc, organic solvent or mixture, thermodynamic from solid
reported-metric: solubility

Q. Looking for the measured solubility of CCOCc1nc2c(N)nc3ccccc3c2n1CC(C)(C)O [sulfate Type A (807919-21-A)] , can you help?
A. < 2000 µg/mL

====

protocol: Kinetic solubility in water and bio-relevant media (SGF, FaSSIF, FeSSIF) at RT
Format: physicochemical
experimental-setup: SGF, RT, 1 hr
Counter-ions that a name gives are not always drawn.
reported-metric: S: Solubility

Consider the following illustrative entries.
CCOCc1nc2c(N)nc3ccccc3c2n1CC(C)(C)O [Malate Type A, resiquimod] = C (C: Clear)
CCOCc1nc2c(N)nc3ccccc3c2n1CC(C)(C)O [Freebase Type A] = 2700 µg/mL
CCOCc1nc2c(N)nc3ccccc3c2n1CC(C)(C)O [Sulfate Type A, resiquimod] = C (C: Clear)
CCOCc1nc2c(N)nc3ccccc3c2n1CC(C)(C)O [Mono-HCl salt Type A, resiquimod] = C (C: Clear)
CCOCc1nc2c(N)nc3ccccc3c2n1CC(C)(C)O [Di-HCl salt Type A, resiquimod] = C (C: Clear)
CCOCc1nc2c(N)nc3ccccc3c2n1CC(C)(C)O [Adipate Type A, resiquimod] = 4700 µg/mL
CCOCc1nc2c(N)nc3ccccc3c2n1CC(C)(C)O [Phosphate Type A, resiquimod] = C (C: Clear)

Here's the next entry for you.
Q. Looking for the measured S: Solubility of CCOCc1nc2c(N)nc3ccccc3c2n1CC(C)(C)O [Maleate Type A, resiquimod] , can you help?
A. 1400 µg/mL

====

protocol: Kinetic solubility in water and bio-relevant media (SGF, FaSSIF, FeSSIF) at RT
Type: physicochemical
experimental-setup: water and bio-relevant media (SGF, FaSSIF, FeSSIF), water, water/bio-relevant media
reported-metric: solubility kinetic

Q. Looking for the measured solubility kinetic of CCOCc1nc2c(N)nc3ccccc3c2n1CC(C)(C)O [Malate Type A, resiquimod] , can you help?
A. > 3500 µg/mL

====

protocol: Kinetic solubility in water and bio-relevant media (SGF, FaSSIF, FeSSIF) at RT
Format: physicochemical
experimental-setup: FaSSIF, RT, 4 hrs
reported-metric: S: Solubility (mg/mL)
Kindly provide the numeric value in mg/mL only, without the unit symbol.

Consider the following illustrative entries.
CCOCc1nc2c(N)nc3ccccc3c2n1CC(C)(C)O [Freebase Type A] = 2.8
CCOCc1nc2c(N)nc3ccccc3c2n1CC(C)(C)O [Maleate Type A, resiquimod] = 2.4

Q. Looking for the measured S: Solubility of CCOCc1nc2c(N)nc3ccccc3c2n1CC(C)(C)O [Adipate Type A, resiquimod] , can you help?
A. 4.6

====

protocol: Kinetic solubility in water and bio-relevant media (SGF, FaSSIF, FeSSIF) at RT
Type: physicochemical
experimental-setup: Water, RT, 24 hrs
reported-metric: S: Solubility (mg/mL)
Kindly provide the numeric value in mg/mL only, without the unit symbol.

CCOCc1nc2c(N)nc3ccccc3c2n1CC(C)(C)O [Adipate Type A, resiquimod] = 2.7
CCOCc1nc2c(N)nc3ccccc3c2n1CC(C)(C)O [Maleate Type A, resiquimod] = 0.97

Here's the next entry for you.
Q. Looking for the measured S: Solubility of CCOCc1nc2c(N)nc3ccccc3c2n1CC(C)(C)O [Freebase Type A] , can you help?
A. 0.5

====

protocol: Solubility estimation in solvents at RT
Assay type: physicochemical
experimental-setup: NMP, organic solvent or mixture, thermodynamic from solid
reported-metric: solubility

Q. Looking for the measured solubility of CCOCc1nc2c(N)nc3ccccc3c2n1CC(C)(C)O [sulfate Type A (807919-21-A)] , can you help?
A. > 44 mg/mL

====

protocol: Solubility estimation in solvents at RT
Format: physicochemical
experimental-setup: MTBE, organic solvent or mixture, thermodynamic from solid
reported-metric: solubility

Q. Looking for the measured solubility of CCOCc1nc2c(N)nc3ccccc3c2n1CC(C)(C)O [sulfate Type A (807919-21-A)] , can you help?
A. < 2300 µg/mL

====

protocol: Kinetic solubility in water and bio-relevant media (SGF, FaSSIF, FeSSIF) at RT
Format: physicochemical
experimental-setup: Water, RT, 2 hrs
reported-metric: S: Solubility

CCOCc1nc2c(N)nc3ccccc3c2n1CC(C)(C)O [Malate Type A, resiquimod] = C (C: Clear)
CCOCc1nc2c(N)nc3ccccc3c2n1CC(C)(C)O [Sulfate Type A, resiquimod] = C (C: Clear)
CCOCc1nc2c(N)nc3ccccc3c2n1CC(C)(C)O [Phosphate Type A, resiquimod] = C (C: Clear)

====

protocol: Kinetic solubility in water and bio-relevant media (SGF, FaSSIF, FeSSIF) at RT
Assay type: physicochemical
experimental-setup: Water, RT, 1 hr
reported-metric: S: Solubility

CCOCc1nc2c(N)nc3ccccc3c2n1CC(C)(C)O [Malate Type A, resiquimod] = C (C: Clear)
CCOCc1nc2c(N)nc3ccccc3c2n1CC(C)(C)O [Phosphate Type A, resiquimod] = C (C: Clear)
CCOCc1nc2c(N)nc3ccccc3c2n1CC(C)(C)O [Sulfate Type A, resiquimod] = C (C: Clear)

====

protocol: Kinetic solubility in water and bio-relevant media (SGF, FaSSIF, FeSSIF) at RT
Assay type: physicochemical
experimental-setup: Water, RT, 4 hrs
reported-metric: S: Solubility

CCOCc1nc2c(N)nc3ccccc3c2n1CC(C)(C)O [Sulfate Type A, resiquimod] = C (C: Clear)
CCOCc1nc2c(N)nc3ccccc3c2n1CC(C)(C)O [Malate Type A, resiquimod] = C (C: Clear)
CCOCc1nc2c(N)nc3ccccc3c2n1CC(C)(C)O [Phosphate Type A, resiquimod] = C (C: Clear)

====

protocol: Kinetic solubility in water and bio-relevant media (SGF, FaSSIF, FeSSIF) at RT
Assay type: physicochemical
experimental-setup: FaSSIF, RT, 4 hrs
Where a name gives a salt, the structure may show the parent alone.
reported-metric: S: Solubility

CCOCc1nc2c(N)nc3ccccc3c2n1CC(C)(C)O [Phosphate Type A, resiquimod] = C (C: Clear)
CCOCc1nc2c(N)nc3ccccc3c2n1CC(C)(C)O [Di-HCl salt Type A, resiquimod] = C (C: Clear)
CCOCc1nc2c(N)nc3ccccc3c2n1CC(C)(C)O [Sulfate Type A, resiquimod] = C (C: Clear)
CCOCc1nc2c(N)nc3ccccc3c2n1CC(C)(C)O [Malate Type A, resiquimod] = C (C: Clear)

====

protocol: Kinetic solubility in water and bio-relevant media (SGF, FaSSIF, FeSSIF) at RT
Type: physicochemical
experimental-setup: Water, RT, 24 hrs
Marks after values point to notes of the source that are not given here.
reported-metric: S: Solubility

Consider the following illustrative entries.
CCOCc1nc2c(N)nc3ccccc3c2n1CC(C)(C)O [Malate Type A, resiquimod] = 3.7* mg/mL
CCOCc1nc2c(N)nc3ccccc3c2n1CC(C)(C)O [Sulfate Type A, resiquimod] = 4.1* mg/mL

Here's the next entry for you.
Q. Looking for the measured S: Solubility of CCOCc1nc2c(N)nc3ccccc3c2n1CC(C)(C)O [Phosphate Type A, resiquimod] , can you help?
A. 3.9* mg/mL
